target.desc: ZBTB21 (UniProt Q9ULJ3)
Sequence (Q9ULJ3 whole entry, looked up): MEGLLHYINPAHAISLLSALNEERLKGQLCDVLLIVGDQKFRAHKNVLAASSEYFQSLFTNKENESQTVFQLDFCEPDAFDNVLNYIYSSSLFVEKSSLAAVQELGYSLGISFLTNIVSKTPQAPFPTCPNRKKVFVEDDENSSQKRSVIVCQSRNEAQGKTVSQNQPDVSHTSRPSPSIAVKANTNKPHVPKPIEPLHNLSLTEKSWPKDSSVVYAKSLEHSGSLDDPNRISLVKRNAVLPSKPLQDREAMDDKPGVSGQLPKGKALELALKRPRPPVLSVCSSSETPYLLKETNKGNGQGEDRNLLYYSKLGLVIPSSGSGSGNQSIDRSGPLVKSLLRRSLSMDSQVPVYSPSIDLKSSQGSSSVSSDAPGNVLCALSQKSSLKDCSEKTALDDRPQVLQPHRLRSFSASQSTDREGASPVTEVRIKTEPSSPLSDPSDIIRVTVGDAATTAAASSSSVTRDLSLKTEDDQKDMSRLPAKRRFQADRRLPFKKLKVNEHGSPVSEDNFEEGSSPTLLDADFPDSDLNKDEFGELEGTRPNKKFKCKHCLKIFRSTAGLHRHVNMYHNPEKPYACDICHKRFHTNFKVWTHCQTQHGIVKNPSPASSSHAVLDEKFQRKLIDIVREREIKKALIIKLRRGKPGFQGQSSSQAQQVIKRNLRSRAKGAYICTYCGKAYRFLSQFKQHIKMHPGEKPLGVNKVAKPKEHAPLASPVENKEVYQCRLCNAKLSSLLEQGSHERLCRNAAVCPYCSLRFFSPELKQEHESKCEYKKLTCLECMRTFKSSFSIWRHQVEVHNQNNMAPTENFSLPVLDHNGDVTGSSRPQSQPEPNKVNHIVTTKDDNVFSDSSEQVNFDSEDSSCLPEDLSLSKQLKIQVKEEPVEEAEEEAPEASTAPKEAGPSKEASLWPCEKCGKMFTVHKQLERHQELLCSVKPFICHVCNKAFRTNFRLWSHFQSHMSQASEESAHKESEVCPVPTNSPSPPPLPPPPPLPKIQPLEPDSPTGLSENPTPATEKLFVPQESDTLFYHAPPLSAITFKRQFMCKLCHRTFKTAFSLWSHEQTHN
assay.overview: log2 fold change, soluble protein after heating vs DMSO (PISA); higher = thermal stabilisation; K562 cells, 10 uM, 30 min; active = over 0.2 and 3.5 SD of the protein, either way, in both replicates (recomputed)
The full data set covers some 7,900 targets. This sample favours those with a hit. About 0.6% of all pairs of compound and target were hits.
measure.name: log2 fold change
Just the number, please.

Exercise: Identify measured log2 fold change associated with O=C1c2ccccc2-c2n[nH]c3cccc1c23
Solution: 0.006

Exercise: Give log2 fold change for the following molecule: CS(=O)(=O)c1ccc(-c2cnc(N)c(C(=O)Nc3ccccc3)n2)cc1
Solution: 0.048

Exercise: Report measured log2 fold change; entry is C[C@@H](N)c1ccc(C(=O)Nc2ccnc3[nH]ccc23)cc1
Solution: 0.125

Exercise: Return value of log2 fold change for input O=C(Nc1nc2ccccc2n1CCN1CCOCC1)c1cccc([N+](=O)[O-])c1 [IRAK-1-4 Inhibitor I] , no commentary.
Solution: 0.006

Exercise: Answer with the recorded log2 fold change of NC(=O)c1cnc(N[C@@H]2CCCC[C@@H]2N)nc1Nc1cccc(-n2nccn2)c1 only.
Solution: -0.044

Exercise: Using known records, supply log2 fold change for NC1(Cc2ccc(Cl)cc2)CCN(c2ncnc3[nH]ccc23)CC1
Solution: 0.024

Exercise: Consider the molecule C[C@@H](Oc1cc(-c2cnn(C3CCNCC3)c2)cnc1N)c1c(Cl)ccc(F)c1Cl [crizotinib] and give its recorded log2 fold change.
Solution: -0.1

Exercise: Look up log2 fold change of Cc1ncc(-c2ccnc(Nc3ccc(S(C)(=O)=O)cc3)n2)n1C(C)C and report it.
Solution: 0.061

Exercise: Supply measured log2 fold change of Cc1cccc(-c2[nH]c(C(C)(C)C)nc2-c2ccc3nccnc3c2)n1 in your reply.
Solution: -0.03

Exercise: Give reported log2 fold change value for COC(=O)[C@H](CCSC)NC(=O)c1ccc(NC[C@@H](N)CS)cc1-c1ccccc1
Solution: -0.022

Exercise: Please give measured log2 fold change of the following entry: Cc1cc(Nc2cc(N3CCN(C)CC3)nc(Sc3ccc(NC(=O)C4CC4)cc3)n2)n[nH]1 [tozasertib]
Solution: -0.219

Exercise: For Cc1cc(Nc2cc(CN3CCOCC3)c3nc(C)c(Cc4ccc(Cl)cc4F)n3n2)n[nH]1 [gandotinib] , write its log2 fold change.
Solution: 0.074

Exercise: Quick one: give measured log2 fold change for C[C@H](Nc1ncnc2nc[nH]c12)c1cc2cccc(Cl)c2c(=O)n1-c1ccccc1 [duvelisib]
Solution: 0.081

Exercise: Report measured log2 fold change; entry is O=C1NC(=O)/C(=C\c2ccc3nccnc3c2)S1
Solution: 0.156

Exercise: Quote log2 fold change reported for Cc1cc(SCc2sc(-c3ccc(C(F)(F)F)cc3)nc2C)ccc1OCC(=O)O please.
Solution: 0.043

Exercise: Give the reported log2 fold change for this molecule. CNC(=O)c1ccc(Nc2ncc(C(F)(F)F)c(NCc3nccnc3N(C)S(C)(=O)=O)n2)cc1 [defactinib]
Solution: -0.033

Exercise: Could you please provide reported log2 fold change for CN(CCOc1ccc(C[C@@H]2SC(=O)NC2=O)cc1)c1ccccn1 (racemic) [rosiglitazone] ? Thanks!
Solution: 0.103

Exercise: Tell me log2 fold change reported for CC[C@@H]1C(=O)N(C)c2cnc(Nc3ccc(C(=O)N[C@H]4CC[C@H](N5CCN(CC6CC6)CC5)CC4)cc3OC)nc2N1C(C)C [volasertib]
Solution: -0.063
